ASSAYED SYSTEM: MC4-R (Homo sapiens)
Sequence (P32245 whole entry): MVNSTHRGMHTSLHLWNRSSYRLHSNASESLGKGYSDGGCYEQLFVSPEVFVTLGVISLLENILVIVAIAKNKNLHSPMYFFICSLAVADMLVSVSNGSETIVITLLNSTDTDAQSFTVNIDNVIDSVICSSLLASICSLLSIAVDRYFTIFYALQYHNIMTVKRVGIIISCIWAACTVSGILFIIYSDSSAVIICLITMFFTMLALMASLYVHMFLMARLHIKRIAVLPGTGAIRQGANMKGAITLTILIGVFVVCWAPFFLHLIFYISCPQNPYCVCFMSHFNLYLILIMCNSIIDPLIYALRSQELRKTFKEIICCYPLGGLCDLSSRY
TEST SUMMARY: Competitive inhibition binding assay, 125I-NDP-α-MSH, MC4-R
Design: expressed in transfected cells
SETUP CONDITIONS: 1 μM compound; inhibition of 125I-NDP-α-MSH binding; mean of triplicates; results less than 0% reported as 0%
Non-standard residues stand in square brackets, D forms with d. Residues, ends and D or L forms follow the SMILES beside them. *: point of attachment. Hyp = O=C(O)[C@@H]1C[C@@H](O)CN1; Nle = CCCC[C@H](N)C(=O)O; NH(CH2)3NH2 = NCCCN*; Bn = c1ccc(C*)cc1
RESULT TYPE: Inhibition at 1 μM MC4-R (%)

| COMPOUND | UNIT SPEC | Inhibition at 1 μM MC4-R |
| --- | --- | --- |
| N=C(N)NCCC[C@H]1C(=O)N(CCc2c[nH]c3ccccc23)CCN1C(=O)[C@H](N)Cc1ccc(Cl)cc1 [Example 125] | % | 68 |
| N=C(N)NCCCC1C(=O)N(CCc2c[nH]c3ccccc23)CCN1C(=O)C(Cc1ccccc1Cl)NC(=O)C1CCC(c2ccccc2)N1 (stereo not drawn) [Example 21] | % | 83 |
| N[C@H](Cc1ccc(Cl)cc1Cl)C(=O)N1CCN(CCc2ccc3ccccc3c2)C(=O)[C@@H]1CCCNc1cc[nH]n1 [Example 69] | % | 3 |
| NCCCC[C@H]1C(=O)N(CCc2ccc3ccccc3c2)CCN1C(=O)[C@@H](Cc1ccc(Cl)cc1Cl)NC(=O)[C@@H]1Cc2ccccc2CN1 [Example 23] | % | 100 |
| NCCCNC(=O)[C@@H]1C[C@@H](OCc2ccccc2)CN1C(=O)[C@@H](Cc1ccccc1)NC(=O)C1(N)Cc2ccccc2C1 [Example 163] | % | 15 |

P: NC(=O)NCCCC[C@H]1C(=O)N(CCc2ccc3ccccc3c2)CCN1C(=O)[C@H](N)Cc1ccc(Cl)cc1Cl [Example 66]
Q: CCCNC(=N)NCCCC1C(=O)N(CCc2ccc3ccccc3c2)CCN1C(=O)C(N)Cc1ccc(Cl)cc1Cl (stereo not drawn) [Example 74]
Prompt: Compare Inhibition at 1 μM MC4-R: is it lower for P or for Q ? Lab note: record the label of whichever item you select.
Response: P

P: NCCCC[C@H]1C(=O)N(CCc2ccc3ccccc3c2)CCN1C(=O)[C@@H](Cc1ccc(Cl)cc1Cl)NCCOCc1ccccc1 [Example 40]
Q: NCCCNC(=O)[C@@H]1C[C@@H](OCc2ccccc2)CN1C(=O)[C@@H](Cc1ccccc1)NC(=O)[C@H](Cc1cnc[nH]1)NC(=O)c1ccccc1 [Example 140]
Prompt: Select one. Lower Inhibition at 1 μM MC4-R: P or Q Identify your selection by its label.
Response: Q

I: CCCC[C@H](NC(C)=O)C(=O)N[C@@H](C)C(=O)N[C@@H](Cc1cnc[nH]1)C(=O)N[C@H](Cc1ccccc1)C(=O)N1C[C@H](OCc2ccccc2)C[C@H]1C(=O)NCCCN [Example 133] (Ac-[Nle]AH[dF][Hyp](Bn)-{NH(CH2)3NH2})
II: NCCCNC(=O)[C@@H]1C[C@@H](OCc2ccccc2)CN1C(=O)[C@@H](Cc1ccccc1)NC(=O)[C@@H](N)Cc1cccc2ccccc12 [Example 165]
Prompt: Hi there, can you help? I need to know whether I or II has lower measured Inhibition at 1 μM MC4-R. Lab note: record the label of whichever item you select.
Response: I
(I: 8%, II: 16%)
